Target: Pantothenate synthetase (Mycobacterium tuberculosis (strain ATCC 25618 / H37Rv))
Experiment: Coupled enzyme confirmation of inhibitors against recombinant Mtb PanC (AID 375);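 also: 0% = full reaction with vehicle and 100% = no enzyme background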
Details: coupled enzyme assay; at 10 µM, stronger effect = higher value

| Compound | Units | inhibition |
| --- | --- | --- |
| Cc1ccc(O)c(NC(=O)COc2cc(C)ccc2C)c1 | % | 0 |
| CC(C)NC(=O)c1ccc2c(c1)nnn2C | % | 0 |
| O=C1[C@@H]2C(c3ccccc3Cl)=NO[C@@H]2C(=O)N1Cc1ccccc1 | % | 0 |
| Cc1cc(C)c(-c2cc(C(=O)Nc3c(C)n(C)n(-c4ccccc4)c3=O)[nH]n2)c(O)c1 | % | 0 |
| COc1ccc(C2C3=C(CC(C)(C)CC3=O)Oc3ncn4nc(-c5cccnc5)nc4c32)cc1 (configuration not stated) | % | 0 |
| CCC(=O)Nc1ccc(NC(=O)CSc2nnnn2C(C)C)cc1 | % | 0 |
| O=S1(=O)Nc2c(ccc3cccnc23)-c2ccccc21 | % | 0 |
| Cn1cccc1Cc1nnc(SCC(N)=O)n1-c1ccc(F)cc1 | % | 0 |
| Cc1cc2oc(C(=O)NC3CCS(=O)(=O)C3)c(C)c2cc1C (configuration not stated) | % | 0 |
| N#Cc1ccc(CSc2nnc(-c3ccccn3)n2-c2ccccc2)cc1 | % | 0 |
| O=C(C(Cc1ccccc1)NS(=O)(=O)c1ccc(F)cc1)N1CCC2(CC1)OCCO2 (configuration not stated) | % | 0 |
| Cc1cn([C@H]2C[C@H](N=[N+]=[N-])[C@@H](CO)O2)c(=O)[nH]c1=O | % | 0 |
| COc1cc(C(=O)NCC(=O)OCC(=O)c2ccc[nH]2)cc(OC)c1OC | % | 2 |
| COc1ccc(Cn2c(CCCO)nc3ccccc32)cc1OC | % | 0 |
| Cc1c(NC(=O)c2ccc(=O)oc2)c(=O)n(-c2ccccc2)n1C | % | 6 |
| CCN1C(=O)N(CC)C2C1N(C(C)=O)C(=O)N2C(C)=O (configuration not stated) | % | 0 |
| COc1ccc(-c2nc(SC)n(S(=O)(=O)c3ccccc3)n2)cc1 | % | 0 |
| Cn1c(Cc2ccccc2)nnc1SCC(=O)NC1CCCCC1 | % | 0 |
| COc1ccccc1NC(=O)N1c2ccc(F)cc2CCC1C (configuration not stated) | % | 8 |
| CN(Cc1ccc(-n2cccn2)cc1)C(=O)c1cnn2c1NC(c1ccco1)CC2C(F)(F)F (configuration not stated) | % | 0 |
| COc1cc(C(=O)Nc2ccc3c(c2)C(=O)N(CCC(=O)O)C3=O)cc(OC)c1OC | % | 0 |
| CCCCC(O)(C(NC=O)C(=O)OC)C(F)(F)F (configuration not stated) | % | 2 |

###

Molecular target: Pantothenate synthetase (Mycobacterium tuberculosis (strain ATCC 25618 / H37Rv))
Assay: Coupled enzyme confirmation of inhibitors against recombinant Mtb PanC (AID 375);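 also: 0% = full reaction with vehicle and 100% = no enzyme background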
Conditions: coupled enzyme assay; at 10 µM, stronger effect = higher value

| Compound | Units | inhibition |
| --- | --- | --- |
| CCCC1(C(=O)OCC)NC(c2ccc(N(C)C)cc2)C2C(=O)N(c3ccccc3)C(=O)C21 (stereo not given) | % | 0 |
| CSc1ccc2c(c1)N(CCC1CCCCN1C)c1ccccc1S2 (stereo not given) | % | 11 |
| CC1=C(C(=O)N2CCOCC2)C(c2ccccc2F)C2=C(CCCC2=O)N1 (stereo not given) | % | 3 |
| Cc1nn(-c2ccccc2)c2c1CC1(C(=O)N(C)C(=O)N(C)C1=O)C1CCCCN21 (stereo not given) | % | 0 |
| CCOC(=O)N1CCN(C(=O)c2ccc3c(=O)n(CCc4ccccc4)c(=O)[nH]c3c2)CC1 | % | 0 |

###

Assay: HUVEC growth inhibition – cell-based, human, primary screen (AID 575);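 also: 100% = median of untreated cell wells with 0.1% DMSO on each plate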
Settings: HUVEC proliferation, CellTiter-Glo luminescence, 72 h; at 10 µM; stronger effect = lower value
For each record, check the reported viability: if it is below 80% write Satisfied, else write Not satisfied.

| Compound | Assigned class |
| --- | --- |
| CN1[C@@H]2CC[C@H]1CC(OC(=O)C1C=Nc3ccccc31)C2 (stereo not given in full) | Not satisfied |
| CCOc1ccc(Br)c(C2(O)CC(C)N(C)CC2C)c1 (stereo not given) | Satisfied |
| CC(=NCc1ccc2c(c1)OCO2)c1c(O)n(C)c(=O)n(C)c1=O | Not satisfied |
| CC(C)N(CCC(C(N)=O)(c1ccccc1)c1ccccn1)C(C)C (stereo not given) | Not satisfied |
| O=c1[nH]c2ccccc2n1CCCN1CCC(n2c(=O)[nH]c3cc(Cl)ccc32)CC1 | Not satisfied |
| COc1ccc(C2NCc3ccc4c(c3-n3cccc32)OCO4)cc1O (stereo not given) | Satisfied |
| CCN1CCN(Cc2cc(Br)cc(OC)c2O)CC1 | Not satisfied |
| Cc1ccc(Cn2c(C)c3cnn(CC(=O)N4CCC5(CC4)OCCO5)c(=O)c3c2C)cc1 | Not satisfied |
| COc1ccc(CCn2c(O)c(C=NCc3cccnc3)c(=O)[nH]c2=O)cc1OC | Not satisfied |
| CC(C)OC(=O)c1c(N)n(CC2CCCO2)c2nc3ccccc3nc12 (stereo not given) | Not satisfied |
| CC1=C(C(=O)N2CCC3(CC2)OCCO3)C2(CCC(C)CC2)OC1=O (stereo not given) | Not satisfied |
| CC1CCN2c3nc4ccccn4c(=O)c3CC3(C(=O)N(C)C(=O)N(C)C3=O)C2C1 (stereo not given) | Not satisfied |
| CCn1c(C)c(C(=O)O)c2cc(OC)ccc21 | Not satisfied |
| C[C@]12CCC(=O)C=C1CC[C@@H]1[C@@H]2CC[C@]2(C)C(=O)CC[C@@H]12 | Satisfied |
| O=C(CN1CCN(Cc2cccc(Cl)c2)C1=O)N1CCC2(CC1)OCCO2 | Not satisfied |
| CCOC(=O)C1CCCCC12C(C#N)=C(N)Oc1n[nH]c(C)c12 (stereo not given) | Not satisfied |
| CNP1(NC)=NC(C(F)(F)F)=NC(C(F)(F)F)=N1 | Not satisfied |
| CC[N+]1(C)CCCC(OC(=O)C(O)(c2ccccc2)c2ccccc2)C1 (stereo not given) | Satisfied |
| O=C(NC1(C(F)(F)F)Oc2ccc(Cl)cc2O1)N1CCC2(CC1)OCCO2 (stereo not given) | Satisfied |
| COc1ccccc1N(CC(=O)NC1CCCCC1)C(=O)c1cnn(C(C)C)c1 | Not satisfied |
| CC(=O)[C@@]1(O)CC[C@H]2[C@@H]3CC=C4C[C@@H](O)CC[C@]4(C)[C@H]3CC[C@@]21C | Not satisfied |
| CCOP(=S)(OCC)c1ccc(N(C)C)cc1 | Not satisfied |
| CC(C)=CCSc1nnc([C@@H](N)Cc2c[nH]c3ccccc23)o1 | Satisfied |
| CC(C)CC12CN3CCN(CC(C3)/C1=N/O)C2 | Not satisfied |
| CC(=O)C1C(=O)NC23CCCCC2C1c1ccccc1O3 (stereo not given) | Not satisfied |
| O=C(c1ccc2nc3ccc(Cl)cc3c(=O)n2c1)N1CCC2(CC1)OCCO2 | Not satisfied |
| CSc1ccc(CNC2CN3CCC2CC3)cc1 (stereo not given) | Not satisfied |
| C=CCN1C(=O)C2(C(C(=O)OCC)=C(N)Oc3c2c(=O)oc2ccccc32)c2ccccc21 (stereo not given) | Not satisfied |
| Nc1ccnn1C1CCNCC1 | Not satisfied |
| COC(=NC1CCCC1)C(O)c1c[nH]c2ccccc12 (stereo not given) | Not satisfied |
| C[N+]1(C)CCc2cc3c(cc2[C@H]1[C@@H]1OC(=O)c2c1ccc1c2OCO1)OCO3 | Not satisfied |
| Cc1cc(C)c(C(=O)CN2CCOCC2)c(C)c1 | Not satisfied |
| O=C(c1ccc2nc(-c3ccco3)c(-c3ccco3)nc2c1)N1CCC2(CC1)OCCO2 | Not satisfied |
| CC(C)C(=O)N1CCN(CCN=Cc2c(O)n(C)c(=O)n(C)c2=O)CC1 | Not satisfied |
| Cc1ccc(-n2c(O)c(C=NCCN3CCOCC3)c(=O)[nH]c2=O)cc1 | Not satisfied |
| COc1ccc(C(=O)N2CCCC2=O)cc1 | Not satisfied |
| Cc1c2ccncc2c(C)c2c1[nH]c1ccccc12 | Satisfied |
| O=C(CN1C(=O)CN=C(c2ccccc2)c2ccccc21)NCc1ccco1 | Not satisfied |
| Cc1ccnc(-n2c(-c3ccco3)nc3ccccc3c2=O)c1 | Not satisfied |
| O=C(CN1C2CCC1CC(O)(c1cccnc1)C2)Nc1ccc2c(c1)OCO2 (stereo not given) | Not satisfied |

###

Target: Pantothenate synthetase (Mycobacterium tuberculosis (strain ATCC 25618 / H37Rv)) (UniProt P9WIL5)
Sequence (P9WIL5 whole entry, looked up): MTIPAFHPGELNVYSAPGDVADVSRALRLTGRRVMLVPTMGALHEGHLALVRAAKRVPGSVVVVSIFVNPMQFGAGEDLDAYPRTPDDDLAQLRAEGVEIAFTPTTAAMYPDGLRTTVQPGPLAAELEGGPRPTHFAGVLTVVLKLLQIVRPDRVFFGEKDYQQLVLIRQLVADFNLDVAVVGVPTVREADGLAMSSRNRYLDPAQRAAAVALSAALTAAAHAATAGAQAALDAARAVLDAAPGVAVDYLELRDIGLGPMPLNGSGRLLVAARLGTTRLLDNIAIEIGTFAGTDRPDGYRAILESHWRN
Experiment: Coupled enzyme confirmation of inhibitors against recombinant Mtb PanC (AID 375);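 also: 0% = full reaction with vehicle and 100% = no enzyme background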
Settings: coupled enzyme assay; at 10 µM, stronger effect = higher value

| Compound | inhibition [%] |
| --- | --- |
| CC(NCCc1ccc(O)cc1)C(O)c1ccc(O)cc1 (stereo not drawn) | 0 |
| CC(=O)Nc1ccc(S(=O)(=O)NCc2cn3c(C)csc3n2)cc1 | 0 |
| Nc1cc(C(=O)O)ccc1Nc1ccc(F)c(F)c1 | 5 |
| NC(=O)N1c2ccccc2C=Cc2ccccc21 | 0 |
| CCOC(=O)C1CCN(c2cc(C)nc3cc(-c4cccc(F)c4)nn23)CC1 | 3 |
| O=C(O)CCC(=O)c1c[nH]c2ccccc12 | 3 |
| Cc1nc(N2CCC(C)CC2)c2c(C)c(C(=O)O)sc2n1 | 0 |
| O=C(Nc1ccc2c(c1)C(=O)N(C1CCCCC1)C2=O)C1CCCO1 (stereo not drawn) | 6 |
| O=c1[nH]c2ccccc2n1CCCN1CCN(C(c2ccccc2)c2ccccc2)CC1 | 1 |
| Cn1cccc1Cc1nnc(SCC(=O)Nc2ccccc2F)n1-c1ccc(F)cc1 | 0 |
| COc1cc(CN2CCSCC2)cc(OC)c1OC | 0 |
| Cc1ccc(NC(=O)C2CCCN(S(=O)(=O)c3cnc[nH]3)C2)cc1C (stereo not drawn) | 11 |
| COC(=O)Cn1cnc2sc(C)c(S(=O)(=O)N3CCC(C)CC3)c2c1=O | 4 |
| CCN(CC)CCN1C(=O)c2oc3ccc(F)cc3c(=O)c2C1c1ccncc1 (stereo not drawn) | 0 |
| O=C1CC(c2ccc(S(=O)(=O)N3CCN(c4ccccc4)CC3)cc2)CN1 (stereo not drawn) | 0 |
| Cc1cccc(C)c1NC(=O)COC(=O)c1nonc1N | 0 |
| O=c1c2[nH]c3ccc(Cl)cc3c2ncn1Cc1ccccn1 | 0 |
| COC(=O)CCC(NC(=O)c1cc(-c2ccc3c(c2)OCCO3)oc1C)C(=O)OC (stereo not drawn) | 0 |
| Cc1cc(C)n(CCCNC(=O)c2ccc3c(c2)NC(=O)CS3)n1 | 0 |
| O=c1c2ccccc2nc(SCc2cccc(F)c2)n1Cc1ccco1 | 4 |
| CCOC(=O)c1[nH]c(C)c(C(=O)Nc2ccc(Cl)cc2)c1C | 0 |
| Cc1ccc2c(c1)NC(=O)C(CC(=O)NCCCN1CCN(c3cc(Cl)ccc3C)CC1)O2 (stereo not drawn) | 1 |
| CC#CP(=O)(OCC)C(O)(c1ccccc1)C(F)(F)F (stereo not drawn) | 0 |
